# subject_of_test: UniProtKB P00743
# Sequence (P00743 41-180 limits assumed): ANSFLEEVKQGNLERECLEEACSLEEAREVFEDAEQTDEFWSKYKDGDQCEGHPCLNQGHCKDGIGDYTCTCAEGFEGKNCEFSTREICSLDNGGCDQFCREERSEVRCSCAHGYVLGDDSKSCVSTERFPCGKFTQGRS
# assay_details: Inhibition of Factor Xa in the chromogenic substrate assay (blood coagulation inhibition)
# Format: biochemical
# condition_set: chromogenic substrate S-2222, antithrombin III, plasma; read-out: Anticoagulative Activity IC50 Factor Xa
endpoint_name: IC50

Previously resolved entries follow.
{"molecule": "C[C@H](OS(=O)(=O)O)[C@H](OS(=O)(=O)O)[C@@H](OS(=O)(=O)O)[C@H](CNC(=O)c1ccc(/C=C\\c2ccc(C(=O)NC[C@H](OS(=O)(=O)O)[C@H](OS(=O)(=O)O)[C@@H](OS(=O)(=O)O)[C@H](C)OS(=O)(=O)O)cc2)cc1)OS(=O)(=O)O [Example 93]", "endpoint_name": "IC50", "result": "> 831 µM"}
{"molecule": "O=C(NC[C@H](OS(=O)(=O)O)[C@@H](OS(=O)(=O)O)[C@H](OS(=O)(=O)O)[C@@H](COS(=O)(=O)O)OS(=O)(=O)O)c1ccc(/C=C/c2ccc(C(=O)NC[C@H](OS(=O)(=O)O)[C@@H](OS(=O)(=O)O)[C@H](OS(=O)(=O)O)[C@@H](COS(=O)(=O)O)OS(=O)(=O)O)cc2Cl)cc1 [Example 85]", "endpoint_name": "IC50", "result": "> 699 µM"}

Next up:
Query block: Note IC50 for the molecule shown: O=C(Nc1ccc(OC[C@@H](OS(=O)(=O)O)[C@H](OS(=O)(=O)O)[C@H](OS(=O)(=O)O)[C@H](COS(=O)(=O)O)OS(=O)(=O)O)cc1)Nc1ccc(OC[C@@H](OS(=O)(=O)O)[C@H](OS(=O)(=O)O)[C@H](OS(=O)(=O)O)[C@H](COS(=O)(=O)O)OS(=O)(=O)O)cc1 [Example 65]
Result block: > 728 µM
